# Lookup of reported IC50 keyed by entry
Molecular target: CDK4-CYCLIND1 (Homo sapiens, UniProt P11802)
Sequence (P11802 whole entry): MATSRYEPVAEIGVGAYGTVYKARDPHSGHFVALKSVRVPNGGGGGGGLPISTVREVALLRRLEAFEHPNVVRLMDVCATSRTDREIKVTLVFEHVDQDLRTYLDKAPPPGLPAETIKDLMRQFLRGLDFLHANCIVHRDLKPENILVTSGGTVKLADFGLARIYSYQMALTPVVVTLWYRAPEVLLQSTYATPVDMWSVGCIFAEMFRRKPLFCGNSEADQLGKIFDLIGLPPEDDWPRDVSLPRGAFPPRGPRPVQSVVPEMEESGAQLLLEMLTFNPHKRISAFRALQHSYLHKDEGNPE
Sequence (P24385 whole entry partner): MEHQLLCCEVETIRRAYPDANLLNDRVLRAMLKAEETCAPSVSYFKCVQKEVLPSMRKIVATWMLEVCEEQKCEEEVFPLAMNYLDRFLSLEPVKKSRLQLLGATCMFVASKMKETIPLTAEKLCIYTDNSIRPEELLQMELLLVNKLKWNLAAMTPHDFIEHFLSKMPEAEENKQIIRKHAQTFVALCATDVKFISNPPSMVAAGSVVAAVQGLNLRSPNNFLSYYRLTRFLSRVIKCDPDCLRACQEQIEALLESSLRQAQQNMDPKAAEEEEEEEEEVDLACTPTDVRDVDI
Assay: Microfluidic LabChip inhibition assay, CDK4-CYCLIND1
Format: biochemical
Details: Table 3b; ATP 200 μM; second values in parentheses on the line below, not explained; read-out: CDK4 CyclinD1 IC50

CC(=O)c1c(C)c2cnc(Nc3ccc(N4CC(C)NC(C)C4)cc3)nc2n(C2CCCC2)c1=O (stereo not drawn)
< 3.2 nM
N#Cc1cc2cnc(Nc3ccc(N4CCN(CCO)CC4)c(F)c3)nc2n(C2CCCC2)c1=O
< 3.2 nM

Now turn to the next compound.
Incoming: Check CDK4-CYCLIND1 (Homo sapiens, UniProt P11802) data and give IC50 for "CC(=O)c1c(C)c2cnc(Nc3ccc(OCCN(C)C)cc3)nc2n(C2CCCC2)c1=O" .
Outgoing: < 3.2 nM
